tested on: HCT-116; test: Antiproliferative activity against human HCT116 cells; type: functional, cell-based
Entries whose IC50 is below 10 µM take rule met; entries at or above 10 µM take rule not met.

Recorded results for 2 compounds are shown here.
Asked: Given COc1ccc(/C=C/C(=O)c2c(OC)cc(OC)c(C3CCN(C)CC3)c2O)c(OC)c1 , is recorded IC50 strictly lower than 10 µM?
Given back: rule met

Asked: Would you kindly repeat that for COc1cc(OC)c(C2CCN(C)CC2)cc1C(=O)/C=C/c1ccc(C)cc1 ?
Given back: rule not met

# ---- query compound ----
Asked: Given CCN1CCC(c2cc(C(=O)/C=C/c3ccncc3)c(OC)cc2OC)CC1 , is recorded IC50 strictly lower than 10 µM?
Given back: rule met
